System: Doxorubicin-induced premature senescent HDF164
assay-method-text: Alamar blue viability assay, doxorubicin-induced SIPS vs quiescent HDF164 (FIG. 7, 14)
Type: cell-based, human
assay-context: MK886 as single treatment; read-out: EC50 for senescent cells

# compound, EC50 / µM
rows = [
    ("CC(C)c1ccc2c(c1)c(SC(C)(C)C)c(CC(C)(C)C(=O)O)n2Cc1ccc(Cl)cc1 [MK886]", 34.7),
]

----------
Tested on: Doxorubicin-induced premature senescent fHDF166
assay-method-text: Alamar blue viability assay, doxorubicin-induced SIPS vs quiescent fHDF166 (FIG. 8, 15)
Type: cell-based, human
assay-context: increasing MK886 combined with 0.4 mM ASA; read-out: EC50 for senescent cells
pEC50: −log10 of the molar value.

# compound-smiles, pEC50
rows = [
    ("CC(C)c1ccc2c(c1)c(SC(C)(C)C)c(CC(C)(C)C(=O)O)n2Cc1ccc(Cl)cc1", 4.53),
]
